Listed here: items and their measured GFP response, % of DMSO.
# Procedure Details: modulators of CIT2-GFP expression in yeast, confirmation, S. cerevisiae, GFP fusion, cherry picks, mother/daughter gates (AID 2274)
# Settings: S. cerevisiae CIT2-GFP strain, flow cytometry, 3 h; measured here: daughter cell gate; at 10 µM; stronger effect = higher value
Reply numerically in %, unit not repeated.

CCc1c2ccccc2nn1-c1ccccc1C(=O)C(C)=O = 99.3
O=C(O)c1ccc2ccc3ccccc3c2c1 = 121
Brc1ccc2c(c1)OCCOCCOc1cc(Br)ccc1OCCOCCOCCO2 = 97.2
C/C(=N\NC(=O)c1cccc(Br)c1)c1ccccn1 = 101
COc1ccccc1N1CCN(C2CCCN(Cc3cc(F)cc(F)c3)C2)CC1 (stereo not given) = 99.3
CCOC(=O)Cc1csc(NC(=O)c2sc3nc4ccc(C)cc4cc3c2N)n1 = 94.8
CCc1c(C)c2cc(Cl)c(O)c(CN(C)C)c2oc1=O = 95.8
Cc1nn(C)cc1C(C)NC(=O)c1cc(COc2ccc(F)c(F)c2)on1 (stereo not given) = 98.1
Cc1ccc2[nH]c(C)c(/C=C/c3cc[n+](C)cc3)c2c1 = 241
COc1cc(NC(=O)c2ccccc2[N+](=O)[O-])ccc1NC(=O)c1cc2ccccc2o1 = 97.4

Given O=C1c2ccsc2SCCN1Cc1c(F)cccc1Cl , respond with its GFP response, % of DMSO. 99.2

Given O=C(CS(=O)c1ccccc1[N+](=O)[O-])Oc1ccc(Br)cc1 (stereo not given) , respond with its GFP response, % of DMSO. 105

Given CCCN(Cc1nnc(-c2ccccc2Cl)o1)C(=O)c1cc([N+](=O)[O-])cc([N+](=O)[O-])c1 , respond with its GFP response, % of DMSO. 94

Given CC(NC(=O)C1CCC(CNS(=O)(=O)c2ccccc2)CC1)c1ccccc1 (stereo not given) , respond with its GFP response, % of DMSO. 100

Given CN1Cc2sc(NC(=S)NC(=O)c3ccccc3)c(C#N)c2CC1(C)C , respond with its GFP response, % of DMSO. 109

Given COc1cccc(-c2nnc(NC(=O)c3ccc(S(=O)(=O)N(CC(C)C)CC(C)C)cc3)o2)c1 , respond with its GFP response, % of DMSO. 102

Given Oc1ccc(C2Nc3cccc4cccc(c34)N2)cc1 , respond with its GFP response, % of DMSO. 98.1

Given CCOc1ccccc1NC(=O)c1nc(S(=O)(=O)Cc2ccccc2)ncc1Cl , respond with its GFP response, % of DMSO. 101

Given COCc1nnc(NC(=O)c2ccc(S(=O)(=O)N(C)C3CCCCC3)cc2)o1 , respond with its GFP response, % of DMSO. 103

Given O=C1C=CC(=O)N1c1cccc(-c2ccccc2)c1 , respond with its GFP response, % of DMSO. 93.2

Given O=C(N/N=C/c1ccccc1Cl)c1ccc(F)cc1 , respond with its GFP response, % of DMSO. 103

Given CCOC(=O)CNc1c(-c2ccccc2)nc2ccc(Cl)cn12 , respond with its GFP response, % of DMSO. 98.3
